B1: POU domain, class 5, transcription factor 1, residues 134 to 212; numbered along this chain, Q01860 (parent)
chain: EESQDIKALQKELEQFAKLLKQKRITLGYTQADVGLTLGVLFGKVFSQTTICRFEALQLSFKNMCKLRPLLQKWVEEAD

variants of: B1; assay: abundance fitness (aPCA) (normalised: wild type 0, dead -1); higher = more abundant; growth selection in yeast, the domain comes from the species named; conditions: Homo sapiens
Readout name: abundance fitness
Numbers only.

L71Q ... -0.658

Could you report abundance fitness for every entry in the following list?
1. D33T
2. L20M
3. L41W
4. L38C
5. Q72K
6. Q58L

Response given:
-1.08
-0.452
0.046
-0.029
-0.025
-0.43

Could you report abundance fitness for every entry in the following list?
1. G43C
2. Q15L

Response given:
1: -0.485; 2: -0.259
